Experiment: Stability in human liver microsomes assessed as parent compound remaining at 0.5 uM after 10 mins by LC-MS analysis
Reported remaining at 10 min, 0.5 µM values follow for various compounds
OBSERVABLE: remaining at 10 min, 0.5 µM (%)

SMILES_DATA: c1ccc2c(c1)CN[C@@H](CN(CCCN1CCN(C3CC3)CC1)[C@H]1CCCc3cccnc31)C2
VAL: 21

SMILES_DATA: c1cnc2c(c1)CN[C@@H](CN(CCCN1CCNCC1)[C@H]1CCCc3cccnc31)C2
VAL: 79

SMILES_DATA: CCN1CCN(CCCN(C[C@H]2Cc3ccccc3CN2)[C@H]2CCCc3cccnc32)CC1
VAL: 59

SMILES_DATA: c1cnc2c(c1)CCC[C@@H]2N(CCCN1CCNCC1)Cc1cc2ccccc2cn1
VAL: 66

SMILES_DATA: c1ccc2c(c1)CN[C@@H](CN(CCCN1CCNCC1)[C@H]1CCCc3cccnc31)C2
VAL: 100

SMILES_DATA: c1ccc2c(c1)CN[C@@H](CN(CC[C@@H]1CCCNC1)[C@H]1CCCc3cccnc31)C2
VAL: 75

SMILES_DATA: c1ccc2c(c1)CN[C@@H](CN(CCC1CCNCC1)[C@H]1CCCc3cccnc31)C2
VAL: 66

----------
Target: C-X-C chemokine receptor type 4 (Homo sapiens)
Sequence (P61073 whole entry): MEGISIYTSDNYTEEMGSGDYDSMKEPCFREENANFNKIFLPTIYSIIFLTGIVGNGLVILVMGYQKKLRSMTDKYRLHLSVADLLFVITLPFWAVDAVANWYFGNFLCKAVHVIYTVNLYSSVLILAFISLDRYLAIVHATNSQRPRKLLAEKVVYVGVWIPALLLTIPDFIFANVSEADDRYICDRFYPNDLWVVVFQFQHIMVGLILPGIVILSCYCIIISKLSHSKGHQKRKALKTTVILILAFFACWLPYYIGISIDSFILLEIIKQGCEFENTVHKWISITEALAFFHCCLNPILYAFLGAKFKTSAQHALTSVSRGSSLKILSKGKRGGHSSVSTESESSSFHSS
Experiment: Antagonist activity at CXCR4 in human CCRF-CEM cells assessed as inhibition of […]-induced calcium flux pretreated for 25 mins followed by […] addition measured for 90 secs by calcium-dye based assay
pIC50: −log10 of the molar value.
Assign True to entries whose pIC50 meets or exceeds 7; assign False to the rest.

MOLECULE: c1ccc2c(c1)CN[C@@H](CN(CCN1CCNCC1)[C@H]1CCCc3cccnc31)C2
LABEL: False

MOLECULE: c1ccc2c(c1)CN[C@@H](CN(CC[C@H]1CCCNC1)[C@H]1CCCc3cccnc31)C2
LABEL: True

MOLECULE: c1ccc2c(c1)CN[C@@H](CN(CCCN1CCN(C3CC3)CC1)[C@H]1CCCc3cccnc31)C2
LABEL: True

MOLECULE: c1cnc2c(c1)CCC[C@@H]2N(CCCN1CCNCC1)Cc1cc2ccccc2cn1
LABEL: True

MOLECULE: CN1CCN(CCCN(CC2Cc3ccccc3CN2C)[C@H]2CCCc3cccnc32)CC1 (single isomer, unassigned)
LABEL: False

MOLECULE: c1cnc2c(c1)CN[C@H](CN(CCCN1CCNCC1)[C@H]1CCCc3cccnc31)C2
LABEL: False

MOLECULE: NC(=O)N1CCN(CCCN(C[C@H]2Cc3ccccc3CN2)[C@H]2CCCc3cccnc32)CC1
LABEL: False

MOLECULE: c1ccc2c(c1)CN[C@H](CN(CCCN1CCNCC1)[C@H]1CCCc3cccnc31)C2
LABEL: False

MOLECULE: CCN1CCN(CCCN(C[C@H]2Cc3ccccc3CN2)[C@H]2CCCc3cccnc32)CC1
LABEL: True

----------
Assay: Stability in rat liver microsomes assessed as parent compound remaining at 0.5 uM after 10 mins by LC-MS analysis
Mark yes for remaining at 10 min, 0.5 µM under 30%, no if at or over.

SMILES_DATA: c1cnc2c(c1)CCC[C@@H]2N(CCCN1CCNCC1)Cc1nc2ccccc2[nH]1
LABEL: yes
--
SMILES_DATA: c1cnc2c(c1)CN[C@@H](CN(CCCN1CCNCC1)[C@H]1CCCc3cccnc31)C2
LABEL: no
--
SMILES_DATA: c1ccc2c(c1)CN[C@H](CN(CCCN1CCNCC1)[C@H]1CCCc3cccnc31)C2
LABEL: no
--
SMILES_DATA: c1ccc2c(c1)CN[C@@H](CN(CCCN1CCN(C3CC3)CC1)[C@H]1CCCc3cccnc31)C2
LABEL: yes
--
SMILES_DATA: c1ccc2c(c1)CN[C@@H](CN(CC[C@@H]1CCCNC1)[C@H]1CCCc3cccnc31)C2
LABEL: yes
--
SMILES_DATA: c1cnc(CN(CCCN2CCNCC2)[C@H]2CCCc3cccnc32)nc1
LABEL: no
--
SMILES_DATA: c1ccc2c(c1)CN[C@@H](CN(CCN1CCNCC1)[C@H]1CCCc3cccnc31)C2
LABEL: no
--
SMILES_DATA: c1cnc2c(c1)CN[C@H](CN(CCCN1CCNCC1)[C@H]1CCCc3cccnc31)C2
LABEL: no
--
SMILES_DATA: CC(C)N1CCN(CCCN(C[C@H]2Cc3ccccc3CN2)[C@H]2CCCc3cccnc32)CC1
LABEL: yes
--
SMILES_DATA: c1ccc2c(c1)CN[C@@H](CN(CCCN1CCNCC1)[C@H]1CCCc3cccnc31)C2
LABEL: no
--
SMILES_DATA: c1ccc2c(c1)CN[C@@H](CN(CC[C@H]1CCCNC1)[C@H]1CCCc3cccnc31)C2
LABEL: no
--
SMILES_DATA: c1ccc2c(c1)CN[C@@H](CN(CC1CCNCC1)[C@H]1CCCc3cccnc31)C2
LABEL: no
--
SMILES_DATA: CN1CCN(CCCN(C[C@H]2Cc3ccccc3CN2)[C@H]2CCCc3cccnc32)CC1
LABEL: yes
--
SMILES_DATA: c1cnc2c(c1)CCC[C@@H]2N(CCCN1CCNCC1)Cc1cc2ccccc2cn1
LABEL: no
